STUDY TARGET: AMP-activated protein kinase, AMPK (Homo sapiens) (UniProt P54646+O43741+P54619+Q9UGJ0+Q9Y478+Q13131+Q9UGI9)
TEST METHOD NOTES: AMP-dependent Kinase enzyme assay. An in vitro enzyme assay that detects ADP turnover that is directly proportional to AMPK activity. This uses naive AMPK that is activated during the assay with MK-8722
Type: functional
Parameters: scale not given: direction of the effect not stated beside the values
CONDITION INFO: 30 µM
READOUT TYPE: Percent Effect (%)
Value expressed in %; do not type the unit.

These recorded examples may help you get a feel for the data.
CCn1nc(C)c(NC(=O)CN(C)C(C)c2nccs2)c1C (centres undefined)
-6.11
CC(=O)N1CCc2c(nc(N(C)C)nc2NCCCn2ccnc2C)C1
7.72
CCCn1ccnc1-c1cccc(NC(=O)[C@H]2CCC(=O)N2)c1
11.3
CC(C)(CNC(=O)c1ccco1)NC(=O)OC(C)(C)C
-6.6
Cc1nccn1[C@@H]1CC[C@@H](N(C)S(=O)(=O)c2cccc(F)c2)[C@H]1O
28.1
COC(=O)CC1CCCCN1CC(=O)Nc1cc(F)ccc1F (centres undefined)
7.24

Need Percent Effect, item Cc1nn(C)cc1C(=O)N1CCC(C(=O)c2nc3ccccc3s2)CC1
20.7

Need Percent Effect, item CCc1cc(N2CCC(NCCc3ccc(C)o3)CC2)nc(C)n1
5.69

* * *

Reported values of Percent Effect for individual entries
STUDY TARGET: AMP-activated protein kinase, AMPK (Homo sapiens) (UniProt P54646+O43741+P54619+Q9UGJ0+Q9Y478+Q13131+Q9UGI9)
TEST METHOD NOTES: AMP-dependent Kinase enzyme assay. An in vitro enzyme assay that detects ADP turnover that is directly proportional to AMPK activity. This uses naive AMPK that is activated during the assay with MK-8722
Assay type: functional
Design: scale not given: direction of the effect not stated beside the values
CONDITION INFO: 30 µM
Value expressed in %; do not type the unit.

These recorded examples may help you get a feel for the data.
Cc1ocnc1C(=O)N1CC[C@@]2(O)CCN(C(=O)N3CCCC3)C[C@H]2C1
6.59
Cc1nc(CNC(=O)c2cc(COc3ccccc3F)[nH]n2)n[nH]1
5.27

Need Percent Effect, item Cc1cc(C)c(C(=O)N2CCC3(CCCNC3)C2)cc1C (centres undefined)
7.09

Need Percent Effect, item Cn1cccc1C(=O)N1CC[C@@]2(O)CCN(S(C)(=O)=O)C[C@H]2C1
4.08

Need Percent Effect, item Cc1nc(CN2CCN(S(=O)(=O)N3CCCCC3)CC2)oc1C
-4.45

Need Percent Effect, item O=C(c1coc(COc2ccccc2F)n1)N1CCCO1
6.72

* * *

STUDY TARGET: Protein translocase subunit SecA (Escherichia coli (strain K12))
TEST METHOD NOTES: Assay to Identify E. coli SecA ATPase Inhibitors
Type: functional
Set-up: scale not given: direction of the effect not stated beside the values
CONDITION INFO: 30 µM
Entries with a potency or affinity are not part of this list.
READOUT TYPE: Percent Effect

These recorded examples may help you get a feel for the data.
CCc1nc(C)ncc1C(=O)N1CCCC(n2nc(C)nc2C)C1 (stereo unspecified)
-0.229%
Cc1cc(C)n(CC2CCCN2CCS(=O)(=O)c2ccccc2)n1 (stereo unspecified)
-0.665%
CC(C)n1ccnc1CN1CCCN(C(=O)c2nccnc2N)CC1
-0.38%
O=C(c1ccnnc1)N1C[C@@H](OCC2CCOCC2)[C@H]2OCCC[C@H]21
-4.07%
Cc1[nH]c2ccccc2c1-c1ccnc(NC[C@H](O)CO)n1
-3.38%

Need Percent Effect, item CCc1nccn1-c1cncc(C2CCCN2Cc2ccc(F)cc2)n1 (stereo unspecified)
-7.77%

Need Percent Effect, item Fc1ccc(-c2nnc(CN3CCn4c(nnc4C4CC4)C3)o2)cc1
-4.82%

Need Percent Effect, item COc1cccc(-n2nnc(C(=O)N3CCN(C)CC3C)c2C)c1 (stereo unspecified)
1.69%
